Measured half-life accompanies every entry in the list below.
Assay: Half-life determination in mouse plasma (LC-MS)
Format: in vitro ADME
Conditions: 37° C.

Molecule	half-life
CCCC[C@H](NC(=O)[C@H](CC(C)C)NC(=O)[C@H](Cc1c[nH]cn1)NC(=O)CCNC(=O)[C@@H](NC(=O)[C@H](C)NC(=O)[C@H](Cc1c[nH]c2ccccc12)NC(=O)[C@H](CCC(N)=O)NC(=O)CCCCCNC(=O)CN1CCN(CCNC(=O)COCCOCCNC(=O)COCCOCCNC(=O)COCCOCCNC(=O)COCCOCCNC(=O)CCC(=O)NCC(=O)O[C@]2(CC)C(=O)OCc3c2cc2n(c3=O)Cc3cc4ccccc4nc3-2)CC1)C(C)C)C(N)=O [Example 21]	5.4 h

Now examine the next entry.
// lookup half-life for CCc1c2c(nc3ccc(O)cc13)-c1cc3c(c(=O)n1C2)COC(=O)[C@@]3(CC)OC(=O)CNC(=O)CCC(=O)NCCOCCOCC(=O)NCCOCCOCC(=O)NCCOCCOCC(=O)NCCOCCOCC(=O)NCCN1CCN(CC(=O)N[C@H](Cc2ccccc2)C(=O)N[C@H]2CSSC[C@@H](C(=O)N[C@H](C(N)=O)[C@@H](C)O)NC(=O)[C@H](CC)NC(=O)[C@H](CCCCN)NC(=O)[C@@H](Cc3c[nH]c4ccccc34)NC(=O)[C@H](Cc3ccc(O)cc3)NC2=O)CC1 [Example 19]
2.6 h
